Where do these numbers come from? They come from the supplement of paper PMC9112550.

Test system: Escherichia coli TOP10
METHOD_DESCRIPTION: shrunken log2 fold change of peptide-encoding DNA abundance (4.5 h post-induction vs induction); higher = less antimicrobial activity (less host growth inhibition)
COND: time post-induction: 4.5 h; library: site-saturation at positions 5, 18, 19, 20
ENDPOINT: shrunken log2 fold change
// print number alone

For orientation, consider the following solved cases.
ITEM_SEQUENCE: RRIRTRPPRLPRPRPRPQYNPRP
shrunken log2 fold change: -0.856

ITEM_SEQUENCE: RRIRIRPPRLPRPRPRPWWVPRP
shrunken log2 fold change: -0.077

ITEM_SEQUENCE: RRIRNRPPRLPRPRPRPQIGPRP
shrunken log2 fold change: 0.0326

ITEM_SEQUENCE: RRIRKRPPRLPRPRPRPNGWPRP
shrunken log2 fold change: 0.452

Observed shrunken log2 fold change, Escherichia coli TOP10, "RRIRERPPRLPRPRPRPVQVPRP" : -0.227

Observed shrunken log2 fold change, Escherichia coli TOP10, "RRIRLRPPRLPRPRPRPAYDPRP" : -0.00456

Observed shrunken log2 fold change, Escherichia coli TOP10, "RRIRNRPPRLPRPRPRPCKNPRP" : -0.0376

Observed shrunken log2 fold change, Escherichia coli TOP10, "RRIRDRPPRLPRPRPRPRQYPRP" : -0.332

Observed shrunken log2 fold change, Escherichia coli TOP10, "RRIRMRPPRLPRPRPRPRERPRP" : 0.623

Observed shrunken log2 fold change, Escherichia coli TOP10, "RRIRVRPPRLPRPRPRPPPMPRP" : 0.641

Observed shrunken log2 fold change, Escherichia coli TOP10, "RRIRFRPPRLPRPRPRPFESPRP" : 0.0452

Observed shrunken log2 fold change, Escherichia coli TOP10, "RRIRIRPPRLPRPRPRPPFNPRP" : -0.473

Observed shrunken log2 fold change, Escherichia coli TOP10, "RRIRKRPPRLPRPRPRPRGFPRP" : 0.18

Observed shrunken log2 fold change, Escherichia coli TOP10, "RRIRSRPPRLPRPRPRPTCKPRP" : 0.107

Observed shrunken log2 fold change, Escherichia coli TOP10, "RRIRMRPPRLPRPRPRPWYRPRP" : -0.277

* * *

Tested on: Escherichia coli TOP10;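 further: peptides expressed intracellularly from a pBAD plasmid library in pooled LB shake-flask culture, induced with 0.3% L-arabinose, DNA abundance read by NGS, three biological replicates, DESeq2 with apeglm shrinkage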
METHOD_DESCRIPTION: shrunken log2 fold change of peptide-encoding DNA abundance (4.5 h post-induction vs induction); higher = less antimicrobial activity (less host growth inhibition)
COND: time post-induction: 4.5 h; library: site-saturation at positions 5, 18, 19, 20
ENDPOINT: shrunken log2 fold change
// print number alone

For orientation, consider the following solved cases.
ITEM_SEQUENCE: RRIRKRPPRLPRPRPRPGLRPRP
shrunken log2 fold change: 0.708
//
ITEM_SEQUENCE: RRIRQRPPRLPRPRPRPQEFPRP
shrunken log2 fold change: -0.0104
//
ITEM_SEQUENCE: RRIRRRPPRLPRPRPRPTDRPRP
shrunken log2 fold change: 0.194
//
ITEM_SEQUENCE: RRIRMRPPRLPRPRPRPKTCPRP
shrunken log2 fold change: 0.12
//
ITEM_SEQUENCE: RRIRERPPRLPRPRPRPPTKPRP
shrunken log2 fold change: 0.774
//
ITEM_SEQUENCE: RRIRWRPPRLPRPRPRPWNFPRP
shrunken log2 fold change: -0.188
//
ITEM_SEQUENCE: RRIRCRPPRLPRPRPRPINHPRP
shrunken log2 fold change: -0.607
//
ITEM_SEQUENCE: RRIRIRPPRLPRPRPRPCWAPRP
shrunken log2 fold change: -0.283
//
ITEM_SEQUENCE: RRIRDRPPRLPRPRPRPVRVPRP
shrunken log2 fold change: 0.908
//
ITEM_SEQUENCE: RRIRGRPPRLPRPRPRPVGCPRP
shrunken log2 fold change: 0.74

Observed shrunken log2 fold change, Escherichia coli TOP10, "RRIRARPPRLPRPRPRPEEFPRP" : 0.00844

Observed shrunken log2 fold change, Escherichia coli TOP10, "RRIRGRPPRLPRPRPRPWLAPRP" : 0.0824

Observed shrunken log2 fold change, Escherichia coli TOP10, "RRIRNRPPRLPRPRPRPQLVPRP" : -0.0147

Observed shrunken log2 fold change, Escherichia coli TOP10, "RRIRFRPPRLPRPRPRPMMAPRP" : 0.189

Observed shrunken log2 fold change, Escherichia coli TOP10, "RRIRFRPPRLPRPRPRPNHMPRP" : -0.567

Observed shrunken log2 fold change, Escherichia coli TOP10, "RRIRNRPPRLPRPRPRPILFPRP" : -0.396

Observed shrunken log2 fold change, Escherichia coli TOP10, "RRIRFRPPRLPRPRPRPWMFPRP" : -0.451

Observed shrunken log2 fold change, Escherichia coli TOP10, "RRIRSRPPRLPRPRPRPLTVPRP" : -0.216

Observed shrunken log2 fold change, Escherichia coli TOP10, "RRIRKRPPRLPRPRPRPTFMPRP" : 0.189

Observed shrunken log2 fold change, Escherichia coli TOP10, "RRIRNRPPRLPRPRPRPPAHPRP" : 0.626

Observed shrunken log2 fold change, Escherichia coli TOP10, "RRIRERPPRLPRPRPRPDTWPRP" : -0.295

Observed shrunken log2 fold change, Escherichia coli TOP10, "RRIRMRPPRLPRPRPRPWIYPRP" : -0.169

Observed shrunken log2 fold change, Escherichia coli TOP10, "RRIRFRPPRLPRPRPRPAQRPRP" : 0.302

Observed shrunken log2 fold change, Escherichia coli TOP10, "RRIRVRPPRLPRPRPRPNDCPRP" : -0.2

Observed shrunken log2 fold change, Escherichia coli TOP10, "RRIRSRPPRLPRPRPRPADYPRP" : -0.455

Observed shrunken log2 fold change, Escherichia coli TOP10, "RRIRPRPPRLPRPRPRPPTGPRP" : 0.452

Observed shrunken log2 fold change, Escherichia coli TOP10, "RRIRSRPPRLPRPRPRPSFIPRP" : -0.661

Observed shrunken log2 fold change, Escherichia coli TOP10, "RRIRMRPPRLPRPRPRPPSIPRP" : 0.411

Observed shrunken log2 fold change, Escherichia coli TOP10, "RRIRRRPPRLPRPRPRPCMQPRP" : 0.23

Observed shrunken log2 fold change, Escherichia coli TOP10, "RRIRVRPPRLPRPRPRPPTPPRP" : 0.548

Observed shrunken log2 fold change, Escherichia coli TOP10, "RRIRVRPPRLPRPRPRPVPEPRP" : 0.564
